Recorded measurements of DC50, one per entry
# tested system: BTK protein in human whole blood (Homo sapiens (Human), UniProt Q06187)
# Sequence (Q06187 whole entry): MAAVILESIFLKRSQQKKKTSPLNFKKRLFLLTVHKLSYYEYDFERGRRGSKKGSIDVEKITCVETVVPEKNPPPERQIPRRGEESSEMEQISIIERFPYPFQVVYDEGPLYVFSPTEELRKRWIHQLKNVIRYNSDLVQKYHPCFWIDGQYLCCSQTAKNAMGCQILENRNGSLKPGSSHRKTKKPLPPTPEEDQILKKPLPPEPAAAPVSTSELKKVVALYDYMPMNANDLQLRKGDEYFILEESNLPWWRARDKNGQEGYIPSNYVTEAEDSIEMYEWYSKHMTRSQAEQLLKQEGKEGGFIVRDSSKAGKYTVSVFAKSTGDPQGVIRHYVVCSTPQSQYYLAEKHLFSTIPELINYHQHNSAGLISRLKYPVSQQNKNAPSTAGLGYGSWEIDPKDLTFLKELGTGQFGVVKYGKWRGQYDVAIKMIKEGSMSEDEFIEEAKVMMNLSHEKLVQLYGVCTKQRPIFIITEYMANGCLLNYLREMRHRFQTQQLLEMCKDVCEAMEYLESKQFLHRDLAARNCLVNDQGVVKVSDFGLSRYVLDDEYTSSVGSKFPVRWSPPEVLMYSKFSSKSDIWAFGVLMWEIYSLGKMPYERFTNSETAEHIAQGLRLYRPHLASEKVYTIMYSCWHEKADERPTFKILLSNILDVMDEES
# assay info: Btk protein in human whole blood MSD ELISA based assay (Btk degradation)
# Assay type: cell-based
# experimental conditions: human whole blood from healthy donors, 6 hours at 37° C., half maximal degradation concentration; read-out: hWB BTK DC50

cpd smiles: Cc1cc(-c2cc(Nc3ccc(N4CCN(CCc5ccc(N6CCC(=O)NC6=O)cc5)C[C@@H]4C(C)C)cn3)ncn2)ccc1[C@@H](C)NC(=O)c1nc(C(C)(C)C)no1
DC50 / nM: 17.3
//
cpd smiles: Cc1cc(-c2cc(Nc3ccc(N4CCN(CCc5ccc(N6CCC(=O)NC6=O)cc5)CC4)cn3)ncn2)ccc1[C@@H](C)NC(=O)c1nc(C(C)(C)C)no1
DC50 / nM: 2.88
//
cpd smiles: Cc1c([C@@H](C)NC(=O)c2nc(C(C)(C)C)no2)ccc(-c2cc(Nc3ccc(N4CCN(CCc5ccc(N6CCC(=O)NC6=O)cc5)CC4)cn3)ncn2)c1F
DC50 / nM: 4.31
//
cpd smiles: CC[C@H]1CN(CCc2ccc(N3CCC(=O)NC3=O)cc2)CCN1c1ccc(Nc2cc(-c3ccc([C@@H](C)NC(=O)c4nc(C(C)(C)C)no4)c(C)c3)ncn2)nc1
DC50 / nM: 2.45
//
cpd smiles: Cc1c([C@@H](C)NC(=O)c2nc(C(C)(C)C)no2)ccc(-c2cc(Nc3ccc(N4CCN(CCc5ccc(N6CCC(=O)NC6=O)cc5)C[C@@H]4C)cn3)ncn2)c1F
DC50 / nM: 3.04
//
cpd smiles: Cc1cc(-c2cc(Nc3ccc(N4CCN(CCc5ccc(N6CCC(=O)NC6=O)cc5)C[C@@H]4C)cn3)ncn2)ccc1[C@@H](C)NC(=O)c1nc(C(C)(C)C)no1
DC50 / nM: 4.08
//
cpd smiles: Cc1cc(-c2cc(Nc3ccc(N4CCN(CCc5ccc(N6CCC(=O)NC6=O)cc5)C[C@@H]4C)cc3)ncn2)ccc1[C@@H](C)NC(=O)c1nc(C(C)(C)C)no1
DC50 / nM: 15.6
//
cpd smiles: Cc1cc(-c2cc(Nc3ccc(N4CCN(CCc5ccc(N6CCC(=O)NC6=O)c(F)c5)C[C@H]4C)cn3)ncn2)ccc1[C@@H](C)NC(=O)c1nc(C(C)(C)C)no1
DC50 / nM: 6
//
cpd smiles: Cc1cc(-c2cc(Nc3ccc(N4CCN(CCc5ccc(N6CCC(=O)NC6=O)cc5)CC4)cn3)ncn2)c(F)cc1[C@@H](C)NC(=O)c1nc(C(C)(C)C)no1
DC50 / nM: 2.27
//
cpd smiles: Cc1cc(-c2cc(Nc3ccc(CCN4CCN(c5ccc(N6CCC(=O)NC6=O)cc5)CC4)cn3)ncn2)ccc1[C@@H](C)NC(=O)c1nc(C(C)(C)C)no1
DC50 / nM: 3
//
cpd smiles: Cc1cc(-c2cc(Nc3ccc(N4CCN(CCc5ccc(N6CCC(=O)NC6=O)cc5)C[C@H]4C)cn3)ncn2)ccc1[C@@H](C)NC(=O)c1nc(C(C)(C)C)no1
DC50 / nM: 5.93
//
cpd smiles: COC[C@H]1CN(CCc2ccc(N3CCC(=O)NC3=O)cc2)CCN1c1ccc(Nc2cc(-c3ccc([C@@H](C)NC(=O)c4nc(C(C)(C)C)no4)c(C)c3)ncn2)nc1
DC50 / nM: 4.21
//
cpd smiles: Cc1cc(-c2cc(Nc3ccc(N4CCN(CCc5ccc(N6CCC(=O)NC6=O)c(F)c5)C[C@@H]4C)cn3)ncn2)ccc1[C@@H](C)NC(=O)c1nc(C(C)(C)C)no1
DC50 / nM: 7.62
//
cpd smiles: CC[C@H]1CN(CCc2ccc(N3CCC(=O)NC3=O)c(F)c2)CCN1c1ccc(Nc2cc(-c3ccc([C@@H](C)NC(=O)c4nc(C(C)(C)C)no4)c(C)c3)ncn2)nc1
DC50 / nM: 18.7
//
cpd smiles: C[C@@H](NC(=O)c1nc(C(C)(C)C)no1)c1ccc(-c2cc(Nc3ccc(N4CCN(CCc5ccc(N6CCC(=O)NC6=O)cc5)C[C@@H]4C)cn3)ncn2)cc1Cl
DC50 / nM: 7.91
//
cpd smiles: CC[C@@H]1CN(CCc2ccc(N3CCC(=O)NC3=O)cc2)CCN1c1ccc(Nc2cc(-c3ccc([C@@H](C)NC(=O)c4nc(C(C)(C)C)no4)c(C)c3)ncn2)nc1
DC50 / nM: 4.04
//
cpd smiles: Cc1cc(-c2cc(Nc3ccc(N4CCN(CCc5ccc(N6CCC(=O)NC6=O)cc5)CC4(C)C)cn3)ncn2)ccc1[C@@H](C)NC(=O)c1nc(C(C)(C)C)no1
DC50 / nM: 9.61
//
cpd smiles: C[C@@H](NC(=O)c1nc(C(C)(C)C)no1)c1ccc(-c2cc(Nc3ccc(N4CCN(CCc5ccc(N6CCC(=O)NC6=O)cc5)C[C@@H]4C)cn3)ncn2)cc1C(F)(F)F
DC50 / nM: 14.2
//
cpd smiles: C[C@@H](NC(=O)c1nc(C(C)(C)C)no1)c1ccc(-c2cc(Nc3ccc(N4CCN(CCc5ccc(N6CCC(=O)NC6=O)cc5)C[C@@H]4C)cn3)ncn2)cc1F
DC50 / nM: 4.13
